# Measured on: UniProt P18825
# Sequence (P18825 whole entry): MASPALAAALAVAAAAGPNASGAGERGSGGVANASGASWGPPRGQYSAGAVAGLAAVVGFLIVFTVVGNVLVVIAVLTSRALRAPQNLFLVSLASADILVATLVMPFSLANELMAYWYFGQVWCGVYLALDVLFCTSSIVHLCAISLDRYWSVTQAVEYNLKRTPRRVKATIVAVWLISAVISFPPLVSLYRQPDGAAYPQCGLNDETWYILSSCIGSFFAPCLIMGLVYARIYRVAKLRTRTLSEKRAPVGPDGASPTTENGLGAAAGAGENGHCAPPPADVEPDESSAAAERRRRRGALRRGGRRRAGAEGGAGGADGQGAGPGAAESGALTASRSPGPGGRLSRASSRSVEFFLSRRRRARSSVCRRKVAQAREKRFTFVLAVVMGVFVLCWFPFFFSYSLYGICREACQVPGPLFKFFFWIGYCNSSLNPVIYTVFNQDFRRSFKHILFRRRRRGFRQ
Assay endpoint: Ki (nM)

Below, 5 compounds whose answers are already recorded.
What value of measured Ki is listed for CC1=C(C(=O)O)C(c2ccc3c(c2)OCO3)C(C(=O)NCCCN2CCC(c3ccccc3)(c3ccccc3)CC2)=C(C)N1 (configuration not stated) ?
776

May I ask what Ki has been recorded for CO/C(O)=C1\C(C)=NC(C)=C(C(=O)NCCCN2CCC(c3ccccc3)(c3ccccc3)CC2)C1c1ccc(C)cc1 (configuration not stated) ?
417

Endpoint output: Ki of CO/C(O)=C1\C(C)=NC(C)=C(C(=O)NCCCN2CCC(c3ccccc3)(c3ccccc3)CC2)C1c1ccc(C#N)cc1 (configuration not stated) . Value?
871

Look at this compound and give its reported Ki. CNC(=O)C1=C(C)NC(C)=C(C(=O)NCCCN2CCC(c3ccccc3)(c3ccccc3)CC2)C1c1ccc2c(c1)OCO2 (configuration not stated)
1020

Look up Ki for this compound: CC1=C(C#N)C(c2ccc([N+](=O)[O-])cc2)C(C(=O)NCCCN2CCC(c3ccccc3)(c3ccccc3)CC2)=C(C)N1 (configuration not stated)
479

(a) CC1=C(C(N)=O)C(c2ccc3c(c2)OCO3)C(C(=O)NCCCN2CCC(c3ccccc3)(c3ccccc3)CC2)=C(C)N1 (configuration not stated)
(b) CO/C(O)=C1\C(C)=NC(C)=C(C(=O)NCCCN2CCC(c3ccccc3)(c3ccccc3)CC2)C1c1ccc(OC)cc1 (configuration not stated)
Field: lower recorded Ki (choose a or b ) Respond with the label that goes with your answer.
a
(a: 724 nM, b: 1150 nM)
